Target: human Y2 receptor (Homo sapiens, UniProt P49146)
Sequence (P49146 whole entry): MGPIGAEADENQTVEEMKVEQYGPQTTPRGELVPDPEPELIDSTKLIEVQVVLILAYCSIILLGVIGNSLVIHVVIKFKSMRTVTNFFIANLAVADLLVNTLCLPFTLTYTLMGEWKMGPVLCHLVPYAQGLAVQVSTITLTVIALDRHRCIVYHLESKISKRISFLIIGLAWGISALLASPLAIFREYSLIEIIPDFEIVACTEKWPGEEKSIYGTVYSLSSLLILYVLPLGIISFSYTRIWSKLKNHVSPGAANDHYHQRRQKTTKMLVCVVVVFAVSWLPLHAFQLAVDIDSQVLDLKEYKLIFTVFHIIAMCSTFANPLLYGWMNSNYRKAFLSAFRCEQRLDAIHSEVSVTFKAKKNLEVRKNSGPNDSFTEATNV
Format: binding
Applied conditions: Table 14
Observation type: pKi
Scale: negative log10 of molar concentration, which is what pKi denotes.

// lookup pKi | system=human Y2 receptor (Homo sapiens, UniProt P49146) | key= O=S(=O)(NC[C@H]1CC[C@H](CNC(CO)Cc2ccc(Cl)cc2)CC1)c1cccc2ccccc12 (stereo partly shown)
6.07

----------
// reported Ki per item
Target: UniProtKB P49146
Type: binding
Applied conditions: read-out: Binding Affinity (Ki (nM) vs. ^125I-PYY) Human Receptor Y2; Table 14
Record the value in nM, omitting the unit from your answer.

Below: 5 molecules and their reported Ki.
INSERT INTO measurements (molecule, assay_value) VALUES
  ('Cl.O=[N+]([O-])c1ccccc1S(=O)(=O)NC[C@H]1CC[C@H](CNCC2CCc3ccccc3C2)CC1 (stereo partly drawn)', 7760),
  ('Cl.Cl.Nc1ccccc1S(=O)(=O)NCC1CCC(CNCC2CCc3ccccc3C2)CC1 (stereo not drawn)', 7570),
  ('Cl.O=S(=O)(NCC1CCC(CNCc2cccc3ccccc23)CC1)c1ccccc1C(F)(F)F (stereo not drawn)', 617),
  ('Cl.O=S(=O)(NCC1CCC(CNCc2ccc3ccccc3c2)CC1)c1ccccc1C(F)(F)F (stereo not drawn)', 1610),
  ('Cl.O=S(=O)(NC[C@H]1CC[C@H](CNCC2CCc3ccccc3C2)CC1)c1cccc2ccccc12 (stereo partly drawn)', 955);

# context switch: different molecule, same Ki
Report Ki for Cl.Cl.O=[N+]([O-])c1ccccc1S(=O)(=O)NCC1CCC(CNCc2ccc3ccccc3n2)CC1 (stereo not drawn) tested on UniProtKB P49146.
58200
